Method summary: Metabolic stability in human liver microsomes assessed as compound remaining after 15 mins at 1 x 10^-7 M (reference value: 100%)
Format: ADME
Condition notes: read-out: Stability
Readout kind: remaining at 0.25 h, 0.1 µM (%)

- Smiles repr: "NC(=O)c1ccccc1OCCCN1CCN(c2cccc3c2ccn3S(=O)(=O)c2ccccc2)CC1"
  Output unit: "%"
  Recorded value: 90.6

* * *

Target or system: UniProt:P14416
Method summary: Agonist activity at human recombinant dopmaine D2L receptor expressed in CHOK1 cells assessed as intracellular Ca2+ levels by aequorin based radiometric and luminescence plate counting method
Readout kind: EC50 (nM)

- Smiles repr: "NC(=O)c1ccccc1OCCCN1CCN(c2cccc3c2ccn3S(=O)(=O)c2ccccc2)CC1"
  Output unit: "nM"
  Recorded value: 54

* * *

Method summary: Metabolic stability in human liver microsomes assessed as compound remaining after 60 mins at 1 x 10^-7 M (reference value: 100%)
Format: ADME
Condition notes: read-out: Stability

- Smiles repr: "NC(=O)c1ccccc1OCCCN1CCN(c2cccc3c2ccn3S(=O)(=O)c2ccccc2)CC1"
  remaining at 1 h, 0.1 µM (%): 57.9

* * *

Method summary: Aqueous solubility in PBS buffer at pH 7.4 at 2 x 10^-4 M
Assay type: physicochemical
Readout kind: solubility at 200 µM (µM)

- Smiles repr: "NC(=O)c1ccccc1OCCCN1CCN(c2cccc3c2ccn3S(=O)(=O)c2ccccc2)CC1"
  Output unit: "µM"
  Recorded value: 7

* * *

For reference, pKi measured on 5-hydroxytryptamine receptor 6 (Homo sapiens, UniProt P50406):
pKi: −log10 of the molar value.
Readout kind: pKi

- Smiles repr: "NC(=O)c1ccccc1OCCCN1CC=C(c2cn(Cc3ccccc3)c3ccccc23)CC1"
  Readout kind: "pKi"
  Recorded value: 6.23
- Smiles repr: "NC(=O)c1ccccc1OCCCNCCc1cn(S(=O)(=O)c2ccccc2)c2ccccc12"
  Readout kind: "pKi"
  Recorded value: 7.21
- Smiles repr: "NC(=O)c1ccccc1OCCCN1CCN(c2cccc3c2ccn3Cc2cccc(Cl)c2)CC1"
  Readout kind: "pKi"
  Recorded value: 7.90
- Smiles repr: "NC(=O)c1ccccc1OCCCN1CCN(c2cccc3c2ccn3S(=O)(=O)c2ccccc2)CC1"
  Readout kind: "pKi"
  Recorded value: 9.00
- Smiles repr: "NC(=O)c1ccccc1OCCCN1CCC(c2cn(Cc3ccccc3)c3ccccc23)CC1"
  Readout kind: "pKi"
  Recorded value: 6.31
- Smiles repr: "NC(=O)c1ccccc1OCCCCN1CCN(c2cccc3c2ccn3S(=O)(=O)c2ccccc2)CC1"
  Readout kind: "pKi"
  Recorded value: 8.55
- Smiles repr: "O=C1CCc2ccc(OCCCCN3CCN(c4cccc5c4ccn5Cc4ccccc4)CC3)cc2N1"
  Readout kind: "pKi"
  Recorded value: 7.89
- Smiles repr: "NC(=O)c1ccccc1OCCCN1CCN(c2cccc3c2ccn3Cc2ccc(F)cc2)CC1"
  Readout kind: "pKi"
  Recorded value: 7.08
- Smiles repr: "CC(C)Oc1ccccc1OCCCN1CCN(c2cccc3c2ccn3S(=O)(=O)c2ccccc2)CC1"
  Readout kind: "pKi"
  Recorded value: 8.77

* * *

Target or system: D(2) dopamine receptor (Homo sapiens, UniProt P14416)
Sequence (P14416 whole entry): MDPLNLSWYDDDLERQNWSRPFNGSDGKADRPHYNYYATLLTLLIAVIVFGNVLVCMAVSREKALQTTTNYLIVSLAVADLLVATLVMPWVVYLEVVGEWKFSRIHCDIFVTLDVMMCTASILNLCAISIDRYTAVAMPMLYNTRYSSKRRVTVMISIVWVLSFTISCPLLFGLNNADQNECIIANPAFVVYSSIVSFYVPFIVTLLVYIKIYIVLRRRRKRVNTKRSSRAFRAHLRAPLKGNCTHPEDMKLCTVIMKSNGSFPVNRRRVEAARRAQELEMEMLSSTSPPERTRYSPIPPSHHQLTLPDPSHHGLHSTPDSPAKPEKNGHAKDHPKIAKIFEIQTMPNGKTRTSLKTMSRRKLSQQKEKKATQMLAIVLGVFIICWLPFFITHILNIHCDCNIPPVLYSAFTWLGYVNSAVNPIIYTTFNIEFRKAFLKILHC
Method summary: biochemical
pKi: −log10 of the molar value.
Rule: YES for pKi not less than 7, NO for anything less.

- Smiles repr: "O=C1CCc2ccc(OCCCCN3CCN(c4cccc5c4ccn5Cc4cccc(F)c4)CC3)cc2N1"
  Target or system: "D(2) dopamine receptor (Homo sapiens, UniProt P14416)"
  Discrete label: "YES"
- Smiles repr: "O=C1CCc2ccc(OCCCCN3CCC(c4cn(S(=O)(=O)c5ccccc5)c5ccccc45)CC3)cc2N1"
  Target or system: "D(2) dopamine receptor (Homo sapiens, UniProt P14416)"
  Discrete label: "YES"
- Smiles repr: "O=C1CCc2ccc(OCCCCN3CC=C(c4cn(S(=O)(=O)c5ccccc5)c5ccccc45)CC3)cc2N1"
  Target or system: "D(2) dopamine receptor (Homo sapiens, UniProt P14416)"
  Discrete label: "YES"
- Smiles repr: "NC(=O)c1ccccc1OCCCNCCc1cn(Cc2ccccc2)c2ccccc12"
  Target or system: "D(2) dopamine receptor (Homo sapiens, UniProt P14416)"
  Discrete label: "NO"

* * *

Method summary: Half life in human liver microsomes at 1 x 10^-7 M
Type: ADME

- Smiles repr: "NC(=O)c1ccccc1OCCCN1CCN(c2cccc3c2ccn3S(=O)(=O)c2ccccc2)CC1"
  half-life at 0.1 µM: "> 1 h"

* * *

Method summary: Metabolic stability in human liver microsomes assessed as compound remaining after 45 mins at 1 x 10^-7 M (reference value: 100%)
Format: ADME
Condition notes: read-out: Stability
Readout kind: remaining at 0.75 h, 0.1 µM (%)

- Smiles repr: "NC(=O)c1ccccc1OCCCN1CCN(c2cccc3c2ccn3S(=O)(=O)c2ccccc2)CC1"
  Recorded value: 68

* * *

Consider the following compounds and their measured Ki readings.
Target or system: UniProt P14416
Method summary: biochemical

- Smiles repr: "O=S(=O)(c1ccccc1)n1ccc2c(N3CCN(CCCCOc4ccc(F)cc4)CC3)cccc21"
  Target or system: "UniProt P14416"
  Ki [nM]: 47
- Smiles repr: "NC(=O)c1ccccc1OCCCN1CCN(c2cccc3c2ccn3S(=O)(=O)c2ccccc2)CC1"
  Target or system: "UniProt P14416"
  Ki [nM]: 6.3
- Smiles repr: "O=S(=O)(c1ccccc1)n1ccc2c(N3CCN(CCCCOc4ccccc4)CC3)cccc21"
  Target or system: "UniProt P14416"
  Ki [nM]: 62
- Smiles repr: "NC(=O)c1ccccc1OCCCNCCc1cn(S(=O)(=O)c2ccccc2)c2ccccc12"
  Target or system: "UniProt P14416"
  Ki [nM]: 180
- Smiles repr: "NC(=O)c1ccccc1OCCCN1CC=C(c2cn(Cc3ccccc3)c3ccccc23)CC1"
  Target or system: "UniProt P14416"
  Ki [nM]: 31
- Smiles repr: "NC(=O)c1ccccc1OCCCN1CCN(c2cccc3c2ccn3Cc2cccc(F)c2)CC1"
  Target or system: "UniProt P14416"
  Ki [nM]: 45
- Smiles repr: "O=C1CCc2ccc(OCCCCN3CCN(c4cccc5c4ccn5Cc4ccc(F)cc4)CC3)cc2N1"
  Target or system: "UniProt P14416"
  Ki [nM]: 12
- Smiles repr: "O=S(=O)(c1ccccc1)n1ccc2c(N3CCN(CCCOc4ccc(F)cc4)CC3)cccc21"
  Target or system: "UniProt P14416"
  Ki [nM]: 67
- Smiles repr: "O=C1CCc2ccc(OCCCCN3CCN(c4cccc5c4ccn5Cc4ccccc4)CC3)cc2N1"
  Target or system: "UniProt P14416"
  Ki [nM]: 20

* * *

Target or system: Sodium-dependent serotonin transporter (Homo sapiens, UniProt P31645)
Sequence (P31645 whole entry): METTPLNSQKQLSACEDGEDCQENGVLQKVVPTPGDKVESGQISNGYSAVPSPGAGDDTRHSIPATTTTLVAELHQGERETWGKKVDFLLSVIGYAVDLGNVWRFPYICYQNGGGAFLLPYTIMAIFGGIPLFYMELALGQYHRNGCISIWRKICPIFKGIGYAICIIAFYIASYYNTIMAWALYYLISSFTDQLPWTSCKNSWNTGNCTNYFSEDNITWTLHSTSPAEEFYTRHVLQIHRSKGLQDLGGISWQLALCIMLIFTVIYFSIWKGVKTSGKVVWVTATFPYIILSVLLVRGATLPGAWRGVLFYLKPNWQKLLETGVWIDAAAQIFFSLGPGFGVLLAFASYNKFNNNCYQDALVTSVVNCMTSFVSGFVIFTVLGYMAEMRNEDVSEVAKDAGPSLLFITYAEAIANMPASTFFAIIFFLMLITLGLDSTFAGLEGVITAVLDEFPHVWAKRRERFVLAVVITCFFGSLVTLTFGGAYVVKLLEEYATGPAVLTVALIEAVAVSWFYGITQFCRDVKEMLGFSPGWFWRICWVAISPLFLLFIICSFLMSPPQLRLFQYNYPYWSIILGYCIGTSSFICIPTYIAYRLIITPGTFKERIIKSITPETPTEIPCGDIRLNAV
pKi: −log10 of the molar value.

- Smiles repr: "NC(=O)c1ccccc1OCCCN1CCN(c2cccc3c2ccn3S(=O)(=O)c2ccccc2)CC1"
  pKi: "< 6.00"

* * *

Target or system: Alpha-1A adrenergic receptor (Homo sapiens)
Sequence (P35348 whole entry): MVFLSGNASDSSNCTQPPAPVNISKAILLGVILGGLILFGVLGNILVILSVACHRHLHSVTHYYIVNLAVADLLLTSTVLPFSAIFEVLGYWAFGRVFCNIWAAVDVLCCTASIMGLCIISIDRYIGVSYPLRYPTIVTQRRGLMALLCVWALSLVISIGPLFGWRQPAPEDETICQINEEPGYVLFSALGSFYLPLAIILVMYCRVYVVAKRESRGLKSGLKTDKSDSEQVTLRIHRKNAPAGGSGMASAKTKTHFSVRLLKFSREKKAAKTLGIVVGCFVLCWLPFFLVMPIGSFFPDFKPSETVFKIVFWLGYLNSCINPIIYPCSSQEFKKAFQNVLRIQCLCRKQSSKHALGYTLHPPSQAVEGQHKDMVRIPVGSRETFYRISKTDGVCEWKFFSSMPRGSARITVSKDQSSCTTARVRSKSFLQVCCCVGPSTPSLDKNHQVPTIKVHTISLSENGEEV
pKi: −log10 of the molar value.

- Smiles repr: "NC(=O)c1ccccc1OCCCN1CCN(c2cccc3c2ccn3S(=O)(=O)c2ccccc2)CC1"
  pKi: 7.77

* * *

Consider the following molecules and their measured pKi readings.
Target or system: UniProt:P14416
Method summary: biochemical
pKi: −log10 of the molar value.
Readout kind: pKi

- Smiles repr: "O=C1CCc2ccc(OCCCCN3CCN(c4cccc5c4ccn5Cc4ccccc4F)CC3)cc2N1"
  Recorded value: 7.96
- Smiles repr: "O=S(=O)(c1ccccc1)n1ccc2c(N3CCN(CCCOc4ccc5ccoc5c4)CC3)cccc21"
  Recorded value: 6.66
- Smiles repr: "O=C1CCc2ccc(OCCCCNCCc3cn(Cc4ccccc4)c4ccccc34)cc2N1"
  Recorded value: 7.15
- Smiles repr: "O=C1CCc2ccc(OCCCCN3CC=C(c4cn(Cc5ccccc5)c5ccccc45)CC3)cc2N1"
  Recorded value: 7.14
- Smiles repr: "O=C1CCc2ccc(OCCCN3CCN(c4cccc5c4ccn5S(=O)(=O)c4ccccc4)CC3)cc2N1"
  Recorded value: 7.64
